# target or system: T1, human PACAP38 (human, not fully specified; C-terminal lysine is amidated; N-terminal or C-terminal biotin in the HTRF and PC-12 cell binding assays)
# T1 construct: synthetic peptide, bought; also called huPACAP (1-38)
# T1 peptide: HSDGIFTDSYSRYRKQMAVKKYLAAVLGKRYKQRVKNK
# assay summary: SPR, Ab immobilised
# From the text: Binding affinities of monoclonal antibodies for human PACAP were estimated using SPR on the PROTEON™ XPR36 (Bio-Rad, Hercules, Calif.). Antibody was immobilized to the surface of general amine coupling (“GLC” or “GLM”) Chips (Bio-Rad, Hercules, Calif.). […]
measured metric: kon (M⁻¹ s⁻¹)
Answers are plain numbers, in M⁻¹ s⁻¹.

// batch mode: one kon value per listed entry
1. anti-PACAP antibody Ab3 (antibody, human IgG1, kappa, N297A, V domains shown, full-length rabbit/human chimeric antibody) VH: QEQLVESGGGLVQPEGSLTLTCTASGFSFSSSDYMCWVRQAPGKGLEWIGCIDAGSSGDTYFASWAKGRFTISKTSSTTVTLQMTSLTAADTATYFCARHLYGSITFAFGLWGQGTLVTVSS VL: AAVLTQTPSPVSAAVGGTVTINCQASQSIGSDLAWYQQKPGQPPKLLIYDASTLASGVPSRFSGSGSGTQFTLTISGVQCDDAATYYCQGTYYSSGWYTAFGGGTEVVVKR
2. anti-PACAP antibody Ab12 (antibody, human IgG1, kappa, N297A, V domains shown, full-length rabbit/human chimeric antibody) VH: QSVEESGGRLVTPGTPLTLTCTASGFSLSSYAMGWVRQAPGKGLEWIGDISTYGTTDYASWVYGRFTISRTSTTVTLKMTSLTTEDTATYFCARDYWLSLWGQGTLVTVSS VL: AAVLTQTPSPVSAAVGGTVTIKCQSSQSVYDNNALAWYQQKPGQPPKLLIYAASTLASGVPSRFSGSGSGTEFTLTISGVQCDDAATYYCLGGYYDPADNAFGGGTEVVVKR
3. anti-PACAP antibody Ab4.H (antibody, human IgG1, kappa, N297A, V domains shown, humanized form of Ab4, full length) VH: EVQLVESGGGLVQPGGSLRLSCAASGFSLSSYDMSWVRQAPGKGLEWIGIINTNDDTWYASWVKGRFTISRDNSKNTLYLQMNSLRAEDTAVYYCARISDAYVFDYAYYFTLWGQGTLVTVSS VL: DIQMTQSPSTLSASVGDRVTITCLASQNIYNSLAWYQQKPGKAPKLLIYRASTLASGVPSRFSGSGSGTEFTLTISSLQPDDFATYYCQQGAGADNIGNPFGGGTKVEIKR

Result:
260000
310000
310000
